test system: HCT-116 colon; test: NCI-60 one-dose screen, 48 h (100 = growth as untreated, 0 = no growth, -100 = all killed); conditions: 10 µM unless noted
This is part of a sample that, as a whole, favours compounds with a hit. Of some 83,000 tested, about 20% had one in any assay.
MEASUREMENT NAME: growth (%)
Please respond with the number in % and leave the unit unwritten.

Reported growth, compound O=C(Nc1cccc(-n2cnc3cc(-c4ccc(O)cc4)ccc32)c1)C1CC1 : ____
9.12

Reported growth, compound CCN(CC)c1ccnc(CNCCSC(c2ccccc2)(c2ccccc2)c2ccc(OC)cc2)c1 : ____
-78.6

Reported growth, compound COc1ccc2[nH]c(O)c(N=NC(=O)Cn3c(-c4ccccc4)nc4cc(C)ccc43)c2c1 : ____
-72.7

Reported growth, compound COc1cc(C2CC(c3cc(OC)c(OC)c(OC)c3)=NN2C(C)=O)ccc1OCc1ccccc1 (centres undefined) : ____
24.3

Reported growth, compound CC(=O)Nc1cccc(Nc2nc(NCc3ccccc3)c3ccccc3n2)c1 : ____
-74.7

Reported growth, compound Cn1cc(-c2cc3nc(-c4cn(C)c5ncc(Br)cc45)cc(N)n3n2)c2ccccc21 : ____
-100

Reported growth, compound C=C1CCC2C3(C)COC(c4cccs4)OC3CCC2(C)C1CC(Sc1ccccc1)C1=CCOC1=O (centres undefined) : ____
32.4

Reported growth, compound Cc1ccc(Cc2cnc(NC(=O)c3ccc(/C=C4\SC(=S)N(C)C4=O)cc3)s2)cc1 : ____
22.7

Reported growth, compound C/C(=N\N=C1/C(=O)Nc2ccc(Cl)cc21)c1ccc2c(c1)Nc1ccccc1S2 : ____
-43

Reported growth, compound CN1CCN(c2ccc3c(c2)nc(NNC(=O)c2cnccn2)c2cccn23)CC1 : ____
-52.1

Reported growth, compound O=C1C(=Nc2ccc(F)c(Cl)c2)c2cccc3cccc1c23 : ____
19

Reported growth, compound O=C(Cn1c(/C=C/c2cccc([N+](=O)[O-])c2)nc2ccccc2c1=O)Nc1ccccc1 : ____
57.6

Reported growth, compound COCOc1cc2c(=O)c(C)c(C(=O)N[C@@H](Cc3ccccc3)C(O)C(=O)NCc3ccccc3)oc2cc1OC (some centres undefined) : ____
-10.4

Reported growth, compound Cn1nc(C(F)(F)F)cc1-c1cc(Cl)c(COc2ccc(Cl)cc2)c(-c2ccc(Cl)c(C(F)(F)F)c2)c1O : ____
-62.2

----------
system: MDA-MB-435 melanoma; assay: NCI-60 one-dose screen, 48 h (100 = growth as untreated, 0 = no growth, -100 = all killed); conditions: 10 µM unless noted
The panel holds about 83,000 compounds, 20% with a hit somewhere; the sample as a whole holds those more often.
MEASUREMENT NAME: growth (%)
Please respond with the number in % and leave the unit unwritten.

Reported growth, molecule C#CCOc1cc(N(CC)CC)ccc1C(C(=O)NC(C)(C)C)N(C(=O)C1CCc2cc(F)ccc2O1)c1ccc(F)cc1 (centres undefined) : ____
54.4

Reported growth, molecule COc1c(F)ccc(C(=O)Nc2ccc3nc(NC(=O)C4CCCN(S(=O)(=O)C5CC5)C4)sc3c2)c1F (centres undefined) : ____
39.5

Reported growth, molecule COCOc1cc2c(=O)c(C)c(C(=O)N[C@@H](Cc3ccccc3)C(O)C(=O)NCc3ccccc3)oc2cc1OC (some centres undefined) : ____
11.2

Reported growth, molecule O=C(CCN1C(=O)/C(=C/c2ccc(F)cc2)SC1=S)N1CCOCC1 : ____
73.5

Reported growth, molecule COc1ccc(-c2ccc(SCC(=O)Nc3ccc(S(N)(=O)=O)cc3Br)nn2)cc1 : ____
108

Reported growth, molecule Cc1cc(C)cc(NC(=O)Cn2cc(COn3nnc4ccccc43)nn2)c1 : ____
100

Reported growth, molecule CN(C)c1nc(NCCNS(=O)(=O)c2ccc(C3=Nc4c(N)nc(N)nc4NC(c4ccc(F)cc4)C3)cc2)nc(Nc2ccc(F)cc2)n1 (centres undefined) : ____
31

Reported growth, molecule Cc1cc2nc3c4ccccc4n(CC4=NCCN4)c3nc2cc1C : ____
-86.6

Reported growth, molecule CC(=O)OC[C@@]1(C)C2CC[C@]3(C)C(CC=C4C5CC(C)(C)CC[C@]5(C(=O)Nc5cccc(C)c5)CC[C@]43C)[C@@]2(C)C[C@@H](OC(C)=O)[C@@H]1OC(C)=O (some centres undefined) : ____
48.2

Reported growth, molecule CC1[C@H]2[C@H](C[C@H]3[C@@H]4CC=C5c6sc(Nc7ccccc7F)nc6CC[C@]5(C)[C@H]4CC[C@@]32C)O[C@]12CC[C@@H](C)CO2 (some centres undefined) : ____
-83.5

Reported growth, molecule Cc1ccc([C@H]2C(C(=O)c3ccc(Cl)cc3)C3(N[C@@H]2c2ccccc2)C(=O)Nc2ccc(Br)cc23)cc1 (some centres undefined) : ____
67.6

Reported growth, molecule COc1cc(OC)c2c3nc4cc(C)c(C)cc4nc3n(CCN(C)C)c2c1 : ____
87.8

Reported growth, molecule N/C(=N\c1nc2ccccc2s1)NC(=O)Nc1ccc(Cl)cc1Cl : ____
-97.3

Reported growth, molecule CC(=O)Nc1cccc(Nc2nccc(N[C@@H](C)c3ccccc3)n2)c1 : ____
18.7

----------
tested on: OVCAR-8 ovarian; assay: NCI-60 one-dose screen, 48 h (100 = growth as untreated, 0 = no growth, -100 = all killed); conditions: 10 µM unless noted
The panel holds about 83,000 compounds, 20% with a hit somewhere; the sample as a whole holds those more often.
For each of the molecules below, state its growth.
Please respond with the number in % and leave the unit unwritten.

Reported growth, molecule CC(C)CCNC(=O)N/C(N)=N/c1nc2ccccc2s1 : ____
70.7

Reported growth, molecule CC(C)C(C(=O)O)n1c(O)c(/C=C2/C=c3cc4c(cc3=NC2=O)OCO4)sc1=S (stereo not drawn) : ____
105

Reported growth, molecule COc1cc2c(c(OC)c1OC)C(=O)CC(c1cccc(NC(=O)c3cc([N+](=O)[O-])ccc3Cl)c1)O2 (stereo not drawn) : ____
-11.6

----------
test system: COLO 205 colon; assay: NCI-60 one-dose screen, 48 h; details: 10 µM unless noted
The panel holds about 83,000 compounds, 20% with a hit somewhere; the sample as a whole holds those more often. The source made the active and inactive calls. Rule for the calls: active = growth percent below 10; inactive = the rest.
In this exercise, the only acceptable responses are active, inactive

I would be grateful if you could indicate the recorded call for O=C(CCN1C(=O)/C(=C/c2ccc(F)cc2)SC1=S)N1CCOCC1 .
inactive

I would be grateful if you could indicate the recorded call for COc1ccc([C@H](C)Nc2nc(Cl)nc3ccccc23)cc1 .
inactive

I would be grateful if you could indicate the recorded call for Cc1cccc(NC(=O)[C@]23CCC(C)(C)CC2C2=CCC4[C@@]5(C)C[C@@H](O)[C@H](O)[C@@](C)(CO)C5CC[C@@]4(C)[C@]2(C)CC3)c1 (stereo partly drawn) .
active

I would be grateful if you could indicate the recorded call for COc1ccc(/C=C/c2nc3ccccc3n3c(-c4ccc(Cl)cc4)nnc23)cc1 .
inactive

I would be grateful if you could indicate the recorded call for COc1ccc(-c2cc(C(=O)NCc3ccccc3)nn2-c2ccc(S(C)(=O)=O)cc2)cc1OC .
inactive

I would be grateful if you could indicate the recorded call for C#CCOc1ccc(/C=N/Nc2nc(-c3cc4cc(Br)ccc4oc3=O)cs2)cc1OC .
inactive

I would be grateful if you could indicate the recorded call for CCCCSc1nc(Nc2ccc(S(N)(=O)=O)cc2)c(C#N)c(-c2cc(OC)c(OC)c(OC)c2)n1 .
inactive

I would be grateful if you could indicate the recorded call for COc1cc(C2CC(c3cc(OC)c(OC)c(OC)c3)=NN2C(C)=O)ccc1OCc1ccccc1 (stereo not drawn) .
inactive

----------
For each of the molecules below, state its growth.
test system: HCT-116 colon; assay: NCI-60 one-dose screen, 48 h (100 = growth as untreated, 0 = no growth, -100 = all killed); details: 10 µM unless noted
This is part of a sample that, as a whole, favours compounds with a hit. Of some 83,000 tested, about 20% had one in any assay.
Please respond with the number in % and leave the unit unwritten.

Reported growth, molecule Cc1ccc([C@H]2C(C(=O)c3ccc(Cl)cc3)C3(N[C@@H]2c2ccccc2)C(=O)Nc2ccc(Br)cc23)cc1 (stereo partly specified) : ____
30.7

Reported growth, molecule O=C(NN1C(=O)/C(=C/C=C/c2ccc([N+](=O)[O-])o2)SC1=S)c1cccc(O)c1 : ____
-77.1

Reported growth, molecule CN(C)CCn1c2ccccc2c2nc3ccc([N+](=O)[O-])cc3nc21 : ____
0.47

Reported growth, molecule COc1ccc(-c2ccnc(SCc3cc4ccccc4[nH]c3=O)n2)cc1OC : ____
2.06

Reported growth, molecule S=c1c2ccccc2nc2n1CCc1c-2[nH]c2ccccc12 : ____
48.7

Reported growth, molecule N#Cc1c(-c2cccnc2)cc(-c2ccc3ccccc3c2)[nH]c1=O : ____
80
